- ASSAY DETAILS: Drug metabolism in iv dosed drug naive Kunming mouse assessed dose of propofol released from prodrugs dosed at 2 times anesthetic ED50
- Format: ADME, organism-based
- MEASUREMENT CONDITIONS: in vivo
MEASURED METRIC: Drug metabolism (mg/kg)
Kindly answer with a numeric value in mg/kg, unit omitted.

MOLECULE: CC(C)c1cccc(C(C)C)c1OC(=O)COC(=O)CN1CCN(C)CC1.Cl
Drug metabolism, mg/kg: 34.8

Input: Any idea what Drug metabolism was measured for CC(C)c1cccc(C(C)C)c1OC(=O)COC(=O)CN.Cl ?
Output: 37.1

Input: Any idea what Drug metabolism was measured for CC(C)c1cccc(C(C)C)c1OC(=O)COC(=O)CC(=O)[O-].[Na+] ?
Output: 76

Input: Any idea what Drug metabolism was measured for CC(C)c1cccc(C(C)C)c1OC(=O)COCC(=O)[O-].[Na+] ?
Output: 74

Input: Any idea what Drug metabolism was measured for CC(C)c1cccc(C(C)C)c1OC(=O)CN1CCOCC1 ?
Output: 42.7

Input: Any idea what Drug metabolism was measured for CC(C)c1cccc(C(C)C)c1OC(=O)COC(=O)C1CCCCN1.Cl (stereo unspecified) ?
Output: 19.3

* * *

- ASSAY DETAILS: Solubility in water measured per 100 ml
- Format: physicochemical
- MEASUREMENT CONDITIONS: buffer
MEASURED METRIC: solubility (g)
Kindly answer with a numeric value in g, unit omitted.

Solved cases (2 shown):
COMPOUND: CC(C)c1cccc(C(C)C)c1OC(=O)COC(=O)CN1CCOCC1.Cl
TEST VALUE: 76.33
--
COMPOUND: CC(C)c1cccc(C(C)C)c1OC(=O)COC(=O)CN1CCCC1.Cl
TEST VALUE: 83.96

Turning now to a further compound:
Input: Any idea what solubility was measured for CC(C)c1cccc(C(C)C)c1OC(=O)COC(=O)CN1CCCCC1.Cl ?
Output: 85.86

* * *

Quick reference for survival among some compounds
- ASSAY DETAILS: Toxicity in iv dosed drug naive Kunming mouse assessed as mouse survival dosed at 2 times anesthetic ED50
- Type: organism-based
- MEASUREMENT CONDITIONS: in vivo

Solved cases (3 shown):
COMPOUND: CC(C)c1cccc(C(C)C)c1OC(=O)COC(=O)CN1CCN(C)CC1.Cl
survival: 70%

COMPOUND: CC(C)c1cccc(C(C)C)c1OC(=O)COC(=O)CN(C)C.Cl
survival: 40%

COMPOUND: CC(C)c1cccc(C(C)C)c1OC(=O)COC(=O)CN1CCCC1.Cl
survival: 100%

Input: Any idea what survival was measured for CC(C)c1cccc(C(C)C)c1OC(=O)COC(=O)CN1CCCCC1.Cl ?
Output: 100%

Input: Any idea what survival was measured for CC(C)c1cccc(C(C)C)c1OC(=O)COC(=O)[C@H](C)N.Cl ?
Output: 50%

Input: Any idea what survival was measured for CC(C)c1cccc(C(C)C)c1OC(=O)COC(=O)C1COCCN1.Cl (configuration not stated) ?
Output: 60%

Input: Any idea what survival was measured for CNCC(=O)OCC(=O)Oc1c(C(C)C)cccc1C(C)C.Cl ?
Output: 60%

* * *

- ASSAY DETAILS: Drug metabolism in iv dosed drug naive Kunming mouse assessed dose of propofol released from prodrugs dosed at 2 times anesthetic ED50
- Format: ADME, organism-based
- MEASUREMENT CONDITIONS: in vivo
Quick reference for Drug metabolism among some compounds
Kindly answer with a numeric value in mg/kg, unit omitted.

COMPOUND: CC(C)c1cccc(C(C)C)c1OC(=O)COC(=O)C1COCCN1.Cl (stereo unspecified)
MEASURED METRIC: Drug metabolism
READOUT UNIT: mg/kg
TEST VALUE: 28.1
--
COMPOUND: CC(C)c1cccc(C(C)C)c1OC(=O)COC(=O)CN1CCCCC1.Cl
MEASURED METRIC: Drug metabolism
READOUT UNIT: mg/kg
TEST VALUE: 22
--
COMPOUND: CC(C)c1cccc(C(C)C)c1OC(=O)CSCC(=O)[O-].[Na+]
MEASURED METRIC: Drug metabolism
READOUT UNIT: mg/kg
TEST VALUE: 203.6
--
COMPOUND: CC(C)c1cccc(C(C)C)c1O
MEASURED METRIC: Drug metabolism
READOUT UNIT: mg/kg
TEST VALUE: 23.4

Input: Any idea what Drug metabolism was measured for CC(C)c1cccc(C(C)C)c1OC(=O)COC(=O)CN1CCOCC1.Cl ?
Output: 25.1

Input: Any idea what Drug metabolism was measured for CC(C)c1cccc(C(C)C)c1OCOP(=O)([O-])[O-].[Na+].[Na+] [FOSPROPOFOL DISODIUM] ?
Output: 112.7

* * *

- ASSAY DETAILS: Therapeutic index, ratio of LD50 for toxicity in iv dosed drug naive Kunming mouse to ED50 for anesthetic activity in iv dosed drug naive Kunming mouse assessed as loss of righting reflex
- Format: organism-based
- MEASUREMENT CONDITIONS: in vivo, read-out: Ratio LD50/ED50
MEASURED METRIC: selectivity ratio
The response must contain the number and no unit.

MOLECULE: CC(C)c1cccc(C(C)C)c1OC(=O)COC(=O)CN1CCOCC1.Cl
selectivity ratio: 4.7
--
MOLECULE: CC(C)c1cccc(C(C)C)c1OC(=O)COC(=O)C1COCCN1.Cl (stereo not given)
selectivity ratio: 2.3
--
MOLECULE: CNCC(=O)OCC(=O)Oc1c(C(C)C)cccc1C(C)C.Cl
selectivity ratio: 2
--
MOLECULE: CC(C)c1cccc(C(C)C)c1OC(=O)COC(=O)CN.Cl
selectivity ratio: 2.6
--
MOLECULE: CC(C)c1cccc(C(C)C)c1OC(=O)COC(=O)CC(=O)[O-].[Na+]
selectivity ratio: 3.2

Input: Any idea what selectivity ratio was measured for CC(C)c1cccc(C(C)C)c1OC(=O)CSCC(=O)[O-].[Na+] ?
Output: 1.2

Input: Any idea what selectivity ratio was measured for CC(C)c1cccc(C(C)C)c1OC(=O)COC(=O)[C@H](C)N.Cl ?
Output: 2.5

* * *

- ASSAY DETAILS: Therapeutic index, ratio of LD50 for toxicity in iv dosed drug naive Kunming mouse to ED50 for anesthetic activity in iv dosed drug naive Kunming mouse assessed as loss of righting reflex
- Assay type: organism-based
- MEASUREMENT CONDITIONS: in vivo, read-out: Ratio LD50/ED50
MEASURED METRIC: selectivity ratio
The response must contain the number and no unit.

Solved cases (2 shown):
MOLECULE: CC(C)c1cccc(C(C)C)c1O
selectivity ratio: 4.5

MOLECULE: CC(C)c1cccc(C(C)C)c1OC(=O)CN1CCOCC1
selectivity ratio: 2.1

Turning now to a further molecule:
Input: Any idea what selectivity ratio was measured for CC(C)c1cccc(C(C)C)c1OCOP(=O)([O-])[O-].[Na+].[Na+] [FOSPROPOFOL DISODIUM] ?
Output: 2.8
